Numbers sourced from patent US20250376461A1.

# Target Of Assay: mouse TRPM3α2 (mTRPM3) ion channel (Mus musculus, UniProt J9SQF3)
# Sequence (J9SQF3 1-1709 isoform J9SQF3-12): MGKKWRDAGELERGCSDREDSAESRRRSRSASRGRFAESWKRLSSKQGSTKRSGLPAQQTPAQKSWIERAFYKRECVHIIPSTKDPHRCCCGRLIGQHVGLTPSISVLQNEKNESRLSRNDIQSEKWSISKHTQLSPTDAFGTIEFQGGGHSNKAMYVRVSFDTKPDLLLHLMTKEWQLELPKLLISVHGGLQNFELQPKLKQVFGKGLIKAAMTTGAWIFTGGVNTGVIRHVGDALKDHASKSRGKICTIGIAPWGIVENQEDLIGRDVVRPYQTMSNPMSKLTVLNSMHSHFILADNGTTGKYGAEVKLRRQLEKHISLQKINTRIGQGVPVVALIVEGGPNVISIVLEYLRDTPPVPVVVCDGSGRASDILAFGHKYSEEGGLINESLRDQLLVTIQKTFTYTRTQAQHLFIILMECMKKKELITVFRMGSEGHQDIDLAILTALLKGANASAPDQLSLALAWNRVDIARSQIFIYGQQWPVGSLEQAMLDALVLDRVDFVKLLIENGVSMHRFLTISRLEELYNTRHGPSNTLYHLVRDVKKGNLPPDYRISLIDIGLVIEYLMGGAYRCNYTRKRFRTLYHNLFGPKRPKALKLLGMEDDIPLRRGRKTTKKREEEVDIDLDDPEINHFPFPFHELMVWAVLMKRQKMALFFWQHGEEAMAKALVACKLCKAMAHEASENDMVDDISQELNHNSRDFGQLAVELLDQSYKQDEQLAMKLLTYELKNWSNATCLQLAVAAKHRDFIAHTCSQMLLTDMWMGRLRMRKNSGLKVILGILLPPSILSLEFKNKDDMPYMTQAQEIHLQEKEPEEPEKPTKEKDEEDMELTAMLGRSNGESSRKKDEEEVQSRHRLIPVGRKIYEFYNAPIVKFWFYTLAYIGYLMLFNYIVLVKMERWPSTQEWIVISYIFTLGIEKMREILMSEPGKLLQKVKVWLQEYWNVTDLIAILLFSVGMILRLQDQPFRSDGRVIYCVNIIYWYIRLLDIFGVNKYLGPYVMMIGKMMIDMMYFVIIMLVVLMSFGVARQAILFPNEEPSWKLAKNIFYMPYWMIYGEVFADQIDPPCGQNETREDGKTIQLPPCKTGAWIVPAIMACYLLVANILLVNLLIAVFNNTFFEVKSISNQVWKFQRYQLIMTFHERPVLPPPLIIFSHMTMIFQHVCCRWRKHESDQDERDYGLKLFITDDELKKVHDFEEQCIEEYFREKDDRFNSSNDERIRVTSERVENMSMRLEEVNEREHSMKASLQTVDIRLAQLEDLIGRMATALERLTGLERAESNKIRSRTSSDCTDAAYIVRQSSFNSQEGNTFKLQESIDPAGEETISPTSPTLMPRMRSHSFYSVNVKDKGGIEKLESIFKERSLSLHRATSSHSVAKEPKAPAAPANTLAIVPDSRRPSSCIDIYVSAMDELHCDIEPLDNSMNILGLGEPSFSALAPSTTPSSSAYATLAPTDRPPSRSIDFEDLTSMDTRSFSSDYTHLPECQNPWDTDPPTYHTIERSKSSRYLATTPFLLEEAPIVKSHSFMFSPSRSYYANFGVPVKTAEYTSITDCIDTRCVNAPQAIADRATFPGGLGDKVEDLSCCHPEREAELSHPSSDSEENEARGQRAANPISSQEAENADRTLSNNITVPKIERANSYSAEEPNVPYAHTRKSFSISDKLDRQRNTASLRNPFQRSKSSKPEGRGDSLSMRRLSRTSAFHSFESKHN
# Procedure Text: TRPM3 ion channel driven Ca2+ uptake, Fluo-4 AM assay, mTRPM3alpha2 overexpressing flip-in HEK293 cells stimulated with pregnenolone sulfate (50 μM)
# Study Conditions: mTRPM3 overexpressing HEK293 cells stimulated with pregnenolone sulfate (50 μM), activity ranges A, B, C

Compound	Target Of Assay	IC50
Cn1nc2ccc(OCC3CC3)cc2c1C(=O)NCCNS(C)(=O)=O [Cpd 140]	mouse TRPM3α2 (mTRPM3) ion channel (Mus musculus, UniProt J9SQF3)	> 20 µM
Cc1ncsc1COc1ccc2nn(C)c(C(=O)NC3(C(N)=O)CCOC3)c2c1 (single isomer, unassigned) [Cpd 170 -En1]	mouse TRPM3α2 (mTRPM3) ion channel (Mus musculus, UniProt J9SQF3)	1 to 20 µM
Cc1ncsc1COc1ccc2nn(C)c(C(=O)NCC3CCC(=O)N3)c2c1 (stereo not shown) [Cpd 063]	mouse TRPM3α2 (mTRPM3) ion channel (Mus musculus, UniProt J9SQF3)	1 to 20 µM
Cn1nc2ccc(OCc3cccnc3)cc2c1C(=O)NC(C)(CO)C(N)=O (single isomer, unassigned) [Cpd 190 - En1]	mouse TRPM3α2 (mTRPM3) ion channel (Mus musculus, UniProt J9SQF3)	1 to 20 µM
Cn1nc2ccc(OCc3cccnc3C(F)(F)F)cc2c1C(=O)NCC(C)(C)CO [Cpd 019]	mouse TRPM3α2 (mTRPM3) ion channel (Mus musculus, UniProt J9SQF3)	> 20 µM
CN1CCC(NC(=O)c2c3cc(OCc4ccnn4C)ccc3nn2C)C1 (stereo not shown) [Cpd 071]	mouse TRPM3α2 (mTRPM3) ion channel (Mus musculus, UniProt J9SQF3)	1 to 20 µM
Cn1nc2ccc(OCc3cccnc3)cc2c1C(=O)NC1(C(N)=O)CCOC1 (single isomer, unassigned) [Cpd 168 - En2]	mouse TRPM3α2 (mTRPM3) ion channel (Mus musculus, UniProt J9SQF3)	< 1 µM
CN(C)CC(C)(CC(F)F)NC(=O)c1c2cc(OCc3ccccn3)ccc2nn1C (single isomer, unassigned) [Cpd 229 - En1]	mouse TRPM3α2 (mTRPM3) ion channel (Mus musculus, UniProt J9SQF3)	1 to 20 µM
Cn1nc2ccc(OCc3ccccn3)cc2c1C(=O)NC1(CO)CC(F)(F)C1 [Cpd 217]	mouse TRPM3α2 (mTRPM3) ion channel (Mus musculus, UniProt J9SQF3)	1 to 20 µM
Cn1nc2ccc(OCc3ccccn3)cc2c1C(=O)NC1CCNC1 (single isomer, unassigned) [Cpd 216 - En1]	mouse TRPM3α2 (mTRPM3) ion channel (Mus musculus, UniProt J9SQF3)	> 20 µM
Cn1nc2ccc(OCc3cccnc3C(F)(F)F)cc2c1C(=O)NCc1cccc(O)n1 [Cpd 036]	mouse TRPM3α2 (mTRPM3) ion channel (Mus musculus, UniProt J9SQF3)	1 to 20 µM
Cc1ccc(COc2ccc3nn(C)c(C(=O)NC4(C(N)=O)CCOC4)c3c2)cn1 (single isomer, unassigned) [Cpd 164 - En2]	mouse TRPM3α2 (mTRPM3) ion channel (Mus musculus, UniProt J9SQF3)	1 to 20 µM
Cn1nc2ccc(OCc3ccccn3)cc2c1C(=O)NC1(CO)CCNC1=O (single isomer, unassigned) [Cpd 253 - En1]	mouse TRPM3α2 (mTRPM3) ion channel (Mus musculus, UniProt J9SQF3)	< 1 µM
Cn1nc2ccc(OCC3CCC3)cc2c1C(=O)NC(C)(CO)CO [Cpd 129]	mouse TRPM3α2 (mTRPM3) ion channel (Mus musculus, UniProt J9SQF3)	1 to 20 µM
CN(C)CC(C)(C)CNC(=O)c1c2cc(OCc3ccccn3)ccc2nn1C [Cpd 207]	mouse TRPM3α2 (mTRPM3) ion channel (Mus musculus, UniProt J9SQF3)	> 20 µM
Cn1nc2ccc(OCc3ccccc3F)cc2c1C(=O)NC1(CO)CCNC1=O (single isomer, unassigned) [Cpd 171 -En2]	mouse TRPM3α2 (mTRPM3) ion channel (Mus musculus, UniProt J9SQF3)	1 to 20 µM
